# MEASURED TARGET: T1, EsCas13d, nuclease-dead (Eubacterium siraeum, UniProt B0MS50, R295A;H300A;R849A;H854A)
# T1 sequence: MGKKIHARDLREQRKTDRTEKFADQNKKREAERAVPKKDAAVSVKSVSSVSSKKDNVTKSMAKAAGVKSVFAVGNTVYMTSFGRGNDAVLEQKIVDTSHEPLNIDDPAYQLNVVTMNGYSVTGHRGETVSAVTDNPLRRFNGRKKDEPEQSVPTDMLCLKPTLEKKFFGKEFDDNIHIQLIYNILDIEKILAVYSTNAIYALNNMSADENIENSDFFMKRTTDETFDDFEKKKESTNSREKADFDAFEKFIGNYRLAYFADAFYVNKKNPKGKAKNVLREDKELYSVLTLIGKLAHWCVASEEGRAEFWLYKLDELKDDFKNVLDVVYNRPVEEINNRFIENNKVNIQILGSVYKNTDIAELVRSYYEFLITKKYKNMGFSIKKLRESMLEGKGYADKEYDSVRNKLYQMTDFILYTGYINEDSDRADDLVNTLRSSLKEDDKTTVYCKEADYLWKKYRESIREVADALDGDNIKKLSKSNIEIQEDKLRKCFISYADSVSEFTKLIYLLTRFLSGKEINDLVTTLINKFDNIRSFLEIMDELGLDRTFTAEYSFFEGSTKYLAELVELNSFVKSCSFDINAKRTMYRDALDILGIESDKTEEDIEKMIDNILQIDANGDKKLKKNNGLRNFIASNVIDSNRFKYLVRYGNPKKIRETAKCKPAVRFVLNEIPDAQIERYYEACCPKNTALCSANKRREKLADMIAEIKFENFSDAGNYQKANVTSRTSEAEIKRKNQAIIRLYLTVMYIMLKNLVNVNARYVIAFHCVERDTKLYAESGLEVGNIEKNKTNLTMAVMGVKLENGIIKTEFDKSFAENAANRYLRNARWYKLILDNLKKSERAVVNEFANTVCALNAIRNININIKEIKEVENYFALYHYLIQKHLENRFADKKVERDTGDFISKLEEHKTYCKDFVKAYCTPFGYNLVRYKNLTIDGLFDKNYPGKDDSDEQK
# PROTOCOL DESCRIPTION: crRNA (strand 1, pre-loaded); Mg2+; 40 mM Tris-HCl pH 7.5, 150 mM NaCl, 6 mM MgCl2, 1 mM DTT, 0.1% Tween-20, 0.2 mg/ml BSA; 25 C; 10 min per concentration, then washed
# EXPERIMENTAL SETUP: tags: His6-TwinStrep-SUMO cleaved; N-terminal SNAP kept (SNAP-Surface 488); label: 3' end held by stalled T7 RNA polymerase
# Kd per entry
MEASURE: Kd (nM)

- target 1 insA 3' of 11,insC 3' of 9 (mixed) RNA 1: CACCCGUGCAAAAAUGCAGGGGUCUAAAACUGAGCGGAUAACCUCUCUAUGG RNA 2: GGGAAUGGAUCCACAUCUACGAAUUCGUACCAUAGAGAGGUAUACUCCGCUCACCGAGAUCGGAAGAGCACACGU: 15.3
- target 2 MT 5'PFS AAC 3'PFS ACG (mixed) RNA 1: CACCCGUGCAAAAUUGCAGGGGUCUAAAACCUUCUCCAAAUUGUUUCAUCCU RNA 2: GGGAAUGGAUCCACAUCUACGAAUUCAACAGGAUGAAACAAUUUGGAGAAGACGAGAUCGGAAGAGCACACGU: 6.1
